Numbers sourced from patent US20240247080A1.

Biological target: GLP-1 receptor (human (printed as hGLP1R), UniProt P43220 24-463)
Test: cell-based or functional assay
Starred links: 1 amine or outer side, 2 acyl side, 3 side chain; linkers in the order of their positions; H or OH if unused. Non-standard residues stand in square brackets, D forms with d. Groups on a side chain read outwards from the residue. No end group written: not given here. *: point of attachment. C20 diacid = O=C(O)CCCCCCCCCCCCCCCCCCC(=O)*; C18 diacid = O=C(O)CCCCCCCCCCCCCCCCC(=O)*; γGlu = O=C(O)[C@H](CCC(=O)[*:2])N[*:1]; εLys = N[C@@H](CCCCN[*:1])C(=O)[*:2]; AEEA = NCCOCCOCC(=O)O; Aib = CC(C)(N)C(=O)O
The label y is reserved for EC50 hGLP1R 0.5% hP (CreLuc) strictly under 0.2 nM; n covers values equal to or above it.

INSERT INTO assay_data (binder, group_label) VALUES
  ('Y[Aib]EGTFTSDYSI[Aib]LEKQAQ[Aib]AFVEWLIK([AEEA-AEEA-γGlu-γGlu-γGlu-C18 diacid])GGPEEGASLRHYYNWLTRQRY-NH2 (also: TFA salt) [Compound 248]', 'n'),
  ('Y[Aib]EGTFTSDYSI[Aib]LEKQAQ[Aib]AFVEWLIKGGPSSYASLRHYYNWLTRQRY-NH2 (not fully specified (residue 28); also: TFA salt) [Compound 183]', 'n'),
  ('YXEGTFTSDLSIXLEKQAQXAFVEWLIKGGPSEGASLRHYYNWLTRQRY (Aib at 2, 13, 20; K28 side chain carries C20DA-gGlu-gGlu-gGlu-gGlu-Glu-gGlu-eLys (so in the source); C-terminal amide) [Compound 234]', 'n'),
  ('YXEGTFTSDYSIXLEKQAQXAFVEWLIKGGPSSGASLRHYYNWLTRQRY (Aib at 2, 13, 20; K28 side chain carries C18DA-gGlu-gGlu-gGlu-gGlu-gGlu; C-terminal amide) [Compound 253]', 'y'),
  ('Y[Aib]EGTFTSDYSI[Aib]LEKQAQ[Aib]AFIEWLIKGGPSEGASLRHYYNWLTRQRY-NH2 (not fully specified (residue 28); also: TFA salt) [Compound 258]', 'y'),
  ('YXEGTFTSDYSIXLEKQAQXAFVEWLIKGGPSYGASLRHYYNWLTRQRY (Aib at 2, 13, 20; K28 side chain carries C20DA-gGlu-gGlu-gGlu-gGlu-gGlu-gGlu-eLys; C-terminal amide) [Compound 232]', 'n'),
  ('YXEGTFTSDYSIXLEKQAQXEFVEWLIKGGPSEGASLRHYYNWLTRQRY (Aib at 2, 13, 20; K28 side chain carries C18DA-gGlu-gGlu-gGlu-gGlu-gGlu-gGlu-eLys; C-terminal amide) [Compound 255]', 'n'),
  ('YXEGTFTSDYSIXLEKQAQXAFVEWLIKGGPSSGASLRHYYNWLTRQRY (Aib at 2, 13, 20; D-Tyr at 49; K28 side chain carries C20DA-gGlu-gGlu-gGlu-gGlu-gGlu-gGlu-eLys; C-terminal amide) [Compound 214]', 'y'),
  ('Y[Aib]EGTFTSDYSI[Aib]LEKQAQ[Aib]AFVEWLIKGGPSSPASLRHYYNWLTRQRY-NH2 (not fully specified (residue 28); also: TFA salt) [Compound 178]', 'y'),
  ('Y[Aib]EGTFTSDYSI[Aib]LEKQAQ[Aib]AFVQWLIK([εLys-γGlu-γGlu-γGlu-γGlu-γGlu-γGlu-γGlu-C20 diacid])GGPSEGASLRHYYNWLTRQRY-NH2 (also: TFA salt) [Compound 224]', 'y'),
  ('Y[Aib]EGTFTSDYSI[Aib]LEKQAQ[Aib]AFVEWLIKGGPSSGASLRHYYNW[dD]TRQRY-NH2 (not fully specified (residue 28); also: TFA salt) [Compound 204]', 'y'),
  ('Y[Aib]EGTFTSDYSI[Aib]LEKQAQ[Aib]AFVQWLIK([AEEA-AEEA-γGlu-γGlu-γGlu-γGlu-C20 diacid])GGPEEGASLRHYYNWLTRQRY-NH2 (also: TFA salt) [Compound 193]', 'n'),
  ('YXEGTFTSDYSIXLEKQAQRAFVEWLIKGGPSSGASLRHYYNWLTRQRY (Aib at 2, 13; D-Arg at 20; K28 side chain carries C20DA-gGlu-gGlu-gGlu-gGlu-gGlu-gGlu-eLys; C-terminal amide) [Compound 216]', 'n'),
  ('Y[Aib]EGTFTSDYSI[Aib]LEKQAQ[Aib]AFVQWLIK([εLys-γGlu-γGlu-γGlu-γGlu-γGlu-C20 diacid])GGPSEYASLRHYYNWLTRQRY-NH2 (also: TFA salt) [Compound 189]', 'n'),
  ('Y[Aib]EGTFTSDYSI[Aib]LEKQAQ[Aib]AFVEWLIK([εLys-γGlu-γGlu-γGlu-γGlu-γGlu-C20 diacid])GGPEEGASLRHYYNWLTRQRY-NH2 (also: TFA salt) [Compound 230]', 'n'),
  ('Y[Aib]EGTFTSDYSI[Aib]LEEQAQ[Aib]AFVEWLIK([εLys-γGlu-γGlu-γGlu-γGlu-γGlu-C20 diacid])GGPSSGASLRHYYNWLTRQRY-NH2 (also: TFA salt) [Compound 181]', 'y'),
  ('Y[Aib]EGTFTSDYSI[Aib]LEKQAQ[Aib]EFVQWLIK([Glu-Glu-Glu-Glu-Glu-Glu-C18 diacid])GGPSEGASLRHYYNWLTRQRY-NH2 (also: TFA salt) [Compound 179]', 'n');
